Target: T1, recombinant human DLL4 (human, UniProt Q9NR61 25-522)
T1 construct: also called rhDLL4; hDLL4
T1 sequence (Q9NR61 25-522): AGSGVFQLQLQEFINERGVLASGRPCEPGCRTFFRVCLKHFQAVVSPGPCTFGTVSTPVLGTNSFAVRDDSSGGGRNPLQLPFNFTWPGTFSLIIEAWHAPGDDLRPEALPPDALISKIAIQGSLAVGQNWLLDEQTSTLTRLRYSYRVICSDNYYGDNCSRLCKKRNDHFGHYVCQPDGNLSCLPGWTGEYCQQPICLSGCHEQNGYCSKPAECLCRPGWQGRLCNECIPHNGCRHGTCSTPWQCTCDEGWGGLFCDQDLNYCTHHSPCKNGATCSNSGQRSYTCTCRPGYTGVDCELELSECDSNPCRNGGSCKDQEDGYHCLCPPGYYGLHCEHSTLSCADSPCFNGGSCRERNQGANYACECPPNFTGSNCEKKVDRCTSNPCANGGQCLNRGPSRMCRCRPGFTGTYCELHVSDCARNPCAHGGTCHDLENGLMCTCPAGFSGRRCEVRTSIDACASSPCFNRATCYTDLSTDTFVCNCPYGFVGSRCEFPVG
Test: competition ELISA, biot-hDLL4 to coated hNotch1-Fc
PROPERTY NAME: IC50 (nM)

BINDER	VALUE REPORTED
DLLBII104G01 (VHH, also called 104G1) VHH: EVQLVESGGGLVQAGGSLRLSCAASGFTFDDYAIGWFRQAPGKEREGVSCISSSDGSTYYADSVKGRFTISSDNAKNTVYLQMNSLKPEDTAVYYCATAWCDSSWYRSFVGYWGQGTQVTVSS	1.1
DLLBII101G08 (VHH, also called 101G8; DLLBII101G8) VHH: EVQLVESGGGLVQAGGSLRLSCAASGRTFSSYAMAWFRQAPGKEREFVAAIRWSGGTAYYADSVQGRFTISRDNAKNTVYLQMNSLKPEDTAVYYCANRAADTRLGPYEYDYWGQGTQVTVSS	9.5
DLLBII6B11 (VHH, also called DLLBII06B1) VHH: EVQLVESEGGLVQAGGSLRLSCAASGSTFSSYAMGWYRQAPGKQRELVAVISNGGITNYPNSVKGRFTISRDNAKNTVYLQMNSLKPEDTAVYYCFYSGSYYYPTDVHEYDYWGQGTQVTVSS	1.5
